- PROTOCOL_NOTES: subacute toxicity, oral administration for 35 days
- APPLIED_CONDITIONS: rat, in vivo, Subeffective Dose
Structures can show the parent of a compound that is named as a salt.
OBSERVATION_TYPE: NOAEL at 840 h (mg/kg)

> print(dat)
                                   molecule  observation.type  value.reported
1            NCCNC(=O)c1cc2c(cn1)sc1ccccc12    NOAEL at 840 h              50
2  O=C(NC1CCCCC1)C1Cc2c(sc3ccccc23)CN1 (centres unmarked) [Compound A-9, hydrochloride]    NOAEL at 840 h              50
